B1: glmS ribozyme (parent)
chain: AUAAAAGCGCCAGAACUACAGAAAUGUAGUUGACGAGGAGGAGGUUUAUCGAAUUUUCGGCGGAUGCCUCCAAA

variants of: B1; assay: self-cleavage kobs at 10000 uM GlcN6P; higher = faster cleavage; RNA array; settings: with glucosamine-6-phosphate
Variants at the floor of the assay were thinned out.

variant-spec: A36C G41U
self-cleavage kobs at 10000 uM GlcN6P: < 1e-05 s⁻¹

variant-spec: A6U G43C U57G C67U
self-cleavage kobs at 10000 uM GlcN6P: < 1e-05 s⁻¹

variant-spec: G59A C68G C70U
self-cleavage kobs at 10000 uM GlcN6P: < 1e-05 s⁻¹

variant-spec: A6U G51U
self-cleavage kobs at 10000 uM GlcN6P: < 1e-05 s⁻¹

variant-spec: C16U C34G U57A G62U
self-cleavage kobs at 10000 uM GlcN6P: < 1e-05 s⁻¹

variant-spec: A12G A15G
self-cleavage kobs at 10000 uM GlcN6P: 0.000371 s⁻¹

variant-spec: U30G A36G C71G
self-cleavage kobs at 10000 uM GlcN6P: < 1e-05 s⁻¹

variant-spec: C34G U65G
self-cleavage kobs at 10000 uM GlcN6P: < 1e-05 s⁻¹

variant-spec: G32C U65A C67A
self-cleavage kobs at 10000 uM GlcN6P: 0.00023 s⁻¹

variant-spec: A42C G51U
self-cleavage kobs at 10000 uM GlcN6P: < 1e-05 s⁻¹

variant-spec: A14G U45A U49G
self-cleavage kobs at 10000 uM GlcN6P: 0.00233 s⁻¹

variant-spec: G32U C71U
self-cleavage kobs at 10000 uM GlcN6P: 0.000927 s⁻¹

variant-spec: A33U G41C A52U A53C
self-cleavage kobs at 10000 uM GlcN6P: < 1e-05 s⁻¹

variant-spec: G32A A39C G44U
self-cleavage kobs at 10000 uM GlcN6P: < 1e-05 s⁻¹

variant-spec: A14G C58U
self-cleavage kobs at 10000 uM GlcN6P: 0.000129 s⁻¹

variant-spec: G7U A42U G44C
self-cleavage kobs at 10000 uM GlcN6P: < 1e-05 s⁻¹

variant-spec: A33G G44C
self-cleavage kobs at 10000 uM GlcN6P: < 1e-05 s⁻¹

variant-spec: A33U U47G
self-cleavage kobs at 10000 uM GlcN6P: 4.2e-05 s⁻¹

variant-spec: U45C U55C
self-cleavage kobs at 10000 uM GlcN6P: 0.00272 s⁻¹

variant-spec: C10U A14G A15G G43A U45G A52G A64G
self-cleavage kobs at 10000 uM GlcN6P: < 1e-05 s⁻¹

variant-spec: U54G G63C U65C C68G C71G
self-cleavage kobs at 10000 uM GlcN6P: 3.78e-05 s⁻¹

variant-spec: G35C A53G
self-cleavage kobs at 10000 uM GlcN6P: < 1e-05 s⁻¹
